Biological target: CYP1A2 (Homo sapiens)
Sequence (P05177 whole entry): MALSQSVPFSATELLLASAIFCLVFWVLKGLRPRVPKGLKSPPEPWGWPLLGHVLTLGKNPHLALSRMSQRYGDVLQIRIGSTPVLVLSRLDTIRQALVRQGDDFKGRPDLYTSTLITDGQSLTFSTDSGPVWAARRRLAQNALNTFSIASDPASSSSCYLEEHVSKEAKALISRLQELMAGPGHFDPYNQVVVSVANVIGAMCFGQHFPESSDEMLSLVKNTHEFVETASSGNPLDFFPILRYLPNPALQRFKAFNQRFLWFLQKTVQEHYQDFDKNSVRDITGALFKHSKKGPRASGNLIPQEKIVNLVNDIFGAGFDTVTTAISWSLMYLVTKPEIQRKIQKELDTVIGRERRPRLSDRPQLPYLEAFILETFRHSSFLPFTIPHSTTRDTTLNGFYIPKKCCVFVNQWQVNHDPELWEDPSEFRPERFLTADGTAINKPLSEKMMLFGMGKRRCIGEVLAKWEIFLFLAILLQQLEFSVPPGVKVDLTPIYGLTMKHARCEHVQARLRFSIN
Assay: Inhibition of recombinant human CYP1A2 expressed in baker's yeast-derived microsomes (Sacchrosomes) at 10 uM using 3-cyano-7-ethoxycoumarin substrate by EROD assay relative to control
Format: ADME
Details: probe 3-cyano-7-ethoxycoumarin
Kind request: treat 70% as inclusive, so inhibition at 10 µM at 70% or higher is yes, anything lower is no.

> print(dat)
                                   molecule  answer.label
1  O=C1C=CC(=O)c2c(O)ccc(O)c21 [NAPHTHAZALIN]           yes
2      COc1c(C(=O)CC(=O)c2ccccc2)ccc2occc12            no
3  COc1ccc2c(c1OC)C(OC)N(C)c1c-2ccc2cc3c(cc12)OCO3 (stereo not given)            no
4     COc1c2ccoc2cc2oc(=O)ccc12 [BERGAPTEN]           yes
5     CC1=CC(=O)c2c(O)cccc2C1=O [PLUMBAGIN]            no

----------
Biological target: Cytochrome P450 1B1 (Homo sapiens)
Experiment: Inhibition of human recombinant CYP1B1 expressed in HEK293 cells using 7-ethoxyresorufin substrate substrate preincubated for 30 mins followed by substrate addition and measured after 60 mins by fluorescence assay relative to control
pIC50: −log10 of the molar value.
Metric name: pIC50

> print(dat)
                                    compound  value.prefix  value
 1  COc1ccc2c(c1OC)C(OC)N(C)c1c-2ccc2cc3c(cc12)OCO3 (stereo not given)             =   5.11
 2     COc1c2ccoc2cc2oc(=O)ccc12 [BERGAPTEN]             =   4.82
 3  Nc1nccc(-c2c[nH]c3ccc(Br)cc23)n1 [MERIDIANIN C]             =   6.67
 4  COc1c2ccoc2c(OCC=C(C)C)c2oc(=O)ccc12 [PHELLOPTERIN]             =   6.66
 5  O=C1C=CC(=O)c2c(O)ccc(O)c21 [NAPHTHAZALIN]             <   5.00
 6  COc1c2occc2c(OC)c2c(=O)cc(C)oc12 [KHELLIN]             =   4.46
 7  COc1ccc(-c2cc(=O)c3c(O)c(OC)c(OC)cc3o2)cc1OC             =   5.60
 8  COc1c2ccoc2c(OC)c2oc(=O)ccc12 [ISOPIMPINELLIN]             =   5.20
 9     CC1=CC(=O)c2c(O)cccc2C1=O [PLUMBAGIN]             =   5.21
10      COc1c(C(=O)CC(=O)c2ccccc2)ccc2occc12             =   5.22

----------
Molecular target: CYP2C19 (Homo sapiens)
Sequence (P33261 whole entry): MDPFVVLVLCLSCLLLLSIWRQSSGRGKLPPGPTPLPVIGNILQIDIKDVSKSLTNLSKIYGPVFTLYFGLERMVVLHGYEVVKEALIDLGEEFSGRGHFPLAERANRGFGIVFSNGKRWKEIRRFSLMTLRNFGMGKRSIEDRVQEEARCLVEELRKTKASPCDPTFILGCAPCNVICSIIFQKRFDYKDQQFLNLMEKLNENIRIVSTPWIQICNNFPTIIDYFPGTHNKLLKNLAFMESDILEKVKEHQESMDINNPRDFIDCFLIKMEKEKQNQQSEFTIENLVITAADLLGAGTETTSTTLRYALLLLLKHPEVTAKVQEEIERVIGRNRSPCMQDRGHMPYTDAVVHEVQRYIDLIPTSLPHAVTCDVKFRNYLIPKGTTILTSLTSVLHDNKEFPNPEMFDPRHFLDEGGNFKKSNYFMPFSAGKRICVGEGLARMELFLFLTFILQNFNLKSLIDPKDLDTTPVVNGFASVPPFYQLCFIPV
Assay: Inhibition of recombinant human CYP2C19 expressed in baker's yeast-derived microsomes (Sacchrosomes) at 10 uM using 3-cyano-7-ethoxycoumarin substrate by EROD assay relative to control
Assay type: ADME
Details: probe 3-cyano-7-ethoxycoumarin
Kind request: treat 5% as inclusive, so inhibition at 10 µM at 5% or higher is Met, anything lower is Not met.

> print(dat)
                                   compound  answer.label
1  O=c1cc(-c2ccccc2)oc2c1ccc1ccccc12 [ALPHA-NAPHTHOFLAVONE]           Met
2  Nc1nccc(-c2c[nH]c3ccc(Br)cc23)n1 [MERIDIANIN C]       Not met
3  O=C1C=CC(=O)c2c(O)ccc(O)c21 [NAPHTHAZALIN]       Not met
4     CC1=CC(=O)c2c(O)cccc2C1=O [PLUMBAGIN]           Met

----------
Molecular target: CYP1B1 (Homo sapiens, UniProt Q16678)
Sequence (Q16678 whole entry): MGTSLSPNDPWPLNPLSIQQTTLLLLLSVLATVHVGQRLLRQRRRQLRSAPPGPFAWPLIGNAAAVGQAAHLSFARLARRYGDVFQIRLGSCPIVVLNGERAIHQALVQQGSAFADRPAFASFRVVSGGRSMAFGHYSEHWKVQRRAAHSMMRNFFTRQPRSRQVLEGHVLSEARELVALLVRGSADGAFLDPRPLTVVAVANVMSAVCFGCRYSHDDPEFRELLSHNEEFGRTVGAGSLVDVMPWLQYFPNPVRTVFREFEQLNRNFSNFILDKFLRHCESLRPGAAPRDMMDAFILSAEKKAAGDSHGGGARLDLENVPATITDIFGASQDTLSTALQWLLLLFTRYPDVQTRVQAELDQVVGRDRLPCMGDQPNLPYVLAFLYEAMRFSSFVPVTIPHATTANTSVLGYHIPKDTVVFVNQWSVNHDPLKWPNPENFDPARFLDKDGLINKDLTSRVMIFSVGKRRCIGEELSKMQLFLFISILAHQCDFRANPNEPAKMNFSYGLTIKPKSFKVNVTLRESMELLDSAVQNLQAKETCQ
Test: Inhibition of recombinant human CYP1B1 expressed in baker's yeast-derived microsomes (Sacchrosomes) at 10 uM using 7-ethoxyresorufin substrate by EROD assay relative to control
Format: ADME
Settings: probe 7-ethoxyresorufin
Metric name: inhibition at 10 µM (%)

> print(dat)
                               smiles.input          metric.name  unit.label  value
1               O=C1C=CC(=O)c2c(O)ccc(O)c21  inhibition at 10 µM           %      8
2      COc1c2ccoc2c(OCC=C(C)C)c2oc(=O)ccc12  inhibition at 10 µM           %     98
3  COc1ccc(-c2cc(=O)c3c(O)c(OC)c(OC)cc3o2)cc1OC  inhibition at 10 µM           %     70
4             COc1c2ccoc2c(OC)c2oc(=O)ccc12  inhibition at 10 µM           %     55
5      COc1c(C(=O)CC(=O)c2ccccc2)ccc2occc12  inhibition at 10 µM           %     12

----------
Biological target: Cytochrome P450 3A4 (Homo sapiens)
Sequence (P08684 whole entry): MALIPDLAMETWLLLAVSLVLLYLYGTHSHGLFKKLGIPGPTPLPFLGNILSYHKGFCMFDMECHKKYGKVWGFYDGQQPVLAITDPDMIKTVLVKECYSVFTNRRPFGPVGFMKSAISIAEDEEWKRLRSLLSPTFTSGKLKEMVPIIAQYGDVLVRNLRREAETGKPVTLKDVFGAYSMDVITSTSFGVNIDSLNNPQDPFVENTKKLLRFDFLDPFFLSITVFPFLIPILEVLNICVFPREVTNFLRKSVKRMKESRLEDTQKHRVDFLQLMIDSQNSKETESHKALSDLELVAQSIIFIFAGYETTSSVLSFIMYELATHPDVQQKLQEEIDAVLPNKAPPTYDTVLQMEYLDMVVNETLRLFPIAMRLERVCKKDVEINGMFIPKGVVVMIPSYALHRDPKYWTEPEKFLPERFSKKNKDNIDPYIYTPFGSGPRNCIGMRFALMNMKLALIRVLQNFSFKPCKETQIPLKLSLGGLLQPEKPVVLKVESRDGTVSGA
Experiment: Inhibition of human recombinant CYP3A4 expressed in HEK293 cells using dibenzylfluorescein substrate substrate preincubated for 30 mins followed by substrate addition and measured after 60 mins by fluorescence assay relative to control
Format: ADME, cell-based
Metric name: IC50

> print(dat)
                                   compound    value
1      COc1c(C(=O)CC(=O)c2ccccc2)ccc2occc12  > 10 µM
2  COc1ccc2c(c1OC)C(OC)N(C)c1c-2ccc2cc3c(cc12)OCO3 (centres undefined)  > 10 µM
3      COc1c2ccoc2c(OCC=C(C)C)c2oc(=O)ccc12  > 10 µM
4             COc1c2ccoc2c(OC)c2oc(=O)ccc12  > 10 µM
5  COc1ccc(-c2cc(=O)c3c(O)c(OC)c(OC)cc3o2)cc1OC  > 10 µM
6                 COc1c2ccoc2cc2oc(=O)ccc12  > 10 µM
7                 CC1=CC(=O)c2c(O)cccc2C1=O  > 10 µM
8          Nc1nccc(-c2c[nH]c3ccc(Br)cc23)n1  > 10 µM
9               O=C1C=CC(=O)c2c(O)ccc(O)c21  > 10 µM

----------
Target: CYP2C9 (Homo sapiens)
Sequence (P11712 whole entry): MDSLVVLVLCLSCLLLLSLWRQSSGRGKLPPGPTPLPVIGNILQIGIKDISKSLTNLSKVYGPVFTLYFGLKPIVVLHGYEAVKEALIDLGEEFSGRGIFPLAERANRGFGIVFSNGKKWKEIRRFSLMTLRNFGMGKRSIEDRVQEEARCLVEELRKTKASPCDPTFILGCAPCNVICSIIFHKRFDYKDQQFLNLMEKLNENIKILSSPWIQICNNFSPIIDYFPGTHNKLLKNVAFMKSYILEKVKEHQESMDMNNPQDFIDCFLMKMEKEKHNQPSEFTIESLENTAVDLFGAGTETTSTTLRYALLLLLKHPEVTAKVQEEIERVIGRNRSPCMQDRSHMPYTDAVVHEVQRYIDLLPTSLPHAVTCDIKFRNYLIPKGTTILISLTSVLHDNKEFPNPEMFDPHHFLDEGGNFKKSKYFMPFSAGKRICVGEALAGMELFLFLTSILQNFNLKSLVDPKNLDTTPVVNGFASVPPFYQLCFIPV
Experiment: Inhibition of recombinant human CYP2C9 expressed in baker's yeast-derived microsomes (Sacchrosomes) at 10 uM using 3-cyano-7-ethoxycoumarin substrate by EROD assay relative to control
Type: ADME
Conditions: probe 3-cyano-7-ethoxycoumarin
Kind request: treat 5% as inclusive, so inhibition at 10 µM at 5% or higher is yes, anything lower is no.

> print(dat)
                                    molecule  answer.label
 1          COc1c2occc2c(OC)c2c(=O)cc(C)oc12           yes
 2      COc1c2ccoc2c(OCC=C(C)C)c2oc(=O)ccc12            no
 3         O=c1cc(-c2ccccc2)oc2c1ccc1ccccc12           yes
 4      COc1c(C(=O)CC(=O)c2ccccc2)ccc2occc12            no
 5          Nc1nccc(-c2c[nH]c3ccc(Br)cc23)n1            no
 6                 COc1c2ccoc2cc2oc(=O)ccc12            no
 7  COc1ccc2c(c1OC)C(OC)N(C)c1c-2ccc2cc3c(cc12)OCO3 (stereo unspecified)            no
 8                 CC1=CC(=O)c2c(O)cccc2C1=O           yes
 9  COc1ccc(-c2cc(=O)c3c(O)c(OC)c(OC)cc3o2)cc1OC           yes
10             COc1c2ccoc2c(OC)c2oc(=O)ccc12            no
